# tgt: jack bean urease (Canavalia ensiformis, UniProt P07374)
# Sequence (P07374 whole entry, looked up): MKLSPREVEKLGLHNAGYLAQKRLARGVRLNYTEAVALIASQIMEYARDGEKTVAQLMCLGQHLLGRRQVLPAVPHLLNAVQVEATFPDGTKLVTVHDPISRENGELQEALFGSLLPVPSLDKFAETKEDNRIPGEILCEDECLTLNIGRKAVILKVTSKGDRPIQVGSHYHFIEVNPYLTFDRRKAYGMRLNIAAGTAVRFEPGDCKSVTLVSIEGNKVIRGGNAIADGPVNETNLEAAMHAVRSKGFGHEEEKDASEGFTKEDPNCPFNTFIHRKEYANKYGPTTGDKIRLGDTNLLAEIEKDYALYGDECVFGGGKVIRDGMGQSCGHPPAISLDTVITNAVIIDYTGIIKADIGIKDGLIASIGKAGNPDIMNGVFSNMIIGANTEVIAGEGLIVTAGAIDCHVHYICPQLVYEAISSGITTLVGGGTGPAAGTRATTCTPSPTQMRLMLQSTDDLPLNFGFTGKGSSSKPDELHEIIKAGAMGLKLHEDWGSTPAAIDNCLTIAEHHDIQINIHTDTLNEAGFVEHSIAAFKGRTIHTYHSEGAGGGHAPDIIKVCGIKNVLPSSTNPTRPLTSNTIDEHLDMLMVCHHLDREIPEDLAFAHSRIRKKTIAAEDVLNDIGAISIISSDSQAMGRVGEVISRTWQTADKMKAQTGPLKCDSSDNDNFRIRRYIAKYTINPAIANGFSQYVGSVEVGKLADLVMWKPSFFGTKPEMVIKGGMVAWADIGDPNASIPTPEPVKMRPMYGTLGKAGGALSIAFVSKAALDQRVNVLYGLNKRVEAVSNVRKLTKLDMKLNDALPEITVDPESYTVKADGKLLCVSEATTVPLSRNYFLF
assay_endpoint: Ki (nM)
Expressed in nM, but write only the number.

# molecule, tgt, Ki [nM]
rows = [
    ("Cc1cc(C)cc(S(=O)(=O)NC23CC4CC(CC(C4)C2)C3)c1 [Compound 9e]", "jack bean urease (Canavalia ensiformis, UniProt P07374)", 22.5),
    ("NC(=S)NNS(=O)(=O)c1cccc(Cl)c1Cl [Compound 12d]", "jack bean urease (Canavalia ensiformis, UniProt P07374)", 53),
]

Noted for Cc1ccc(S(=O)(=O)Nc2ccc(S(=O)(=O)Nc3ncccn3)cc2)cc1 [Compound 6a] : its Ki reads 1.1
